Subject of test: MAS I191A mutant (Homo sapiens, UniProt P04201, I191A)
Construct: expressed in transfected cells
Sequence (P04201 whole entry I191A): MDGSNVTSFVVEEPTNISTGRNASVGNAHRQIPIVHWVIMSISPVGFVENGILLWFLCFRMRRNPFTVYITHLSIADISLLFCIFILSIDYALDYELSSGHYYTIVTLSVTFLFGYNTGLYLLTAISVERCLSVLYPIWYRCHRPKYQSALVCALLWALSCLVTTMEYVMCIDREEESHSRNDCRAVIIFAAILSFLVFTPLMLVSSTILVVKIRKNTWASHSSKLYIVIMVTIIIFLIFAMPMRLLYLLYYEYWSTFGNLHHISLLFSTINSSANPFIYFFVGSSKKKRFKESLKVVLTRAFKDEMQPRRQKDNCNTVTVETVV
Experimental protocol: IP1 assay, I191A MAS mutant stable cell line
Type: cell-based

>  <Compound>
COc1cc([N+](=O)[O-])ccc1S(=O)(=O)N1CC(CN2CCN(c3ccccn3)CC2)C(c2cccc(F)c2)C1 (stereo not shown)

>  <Subject of test>
MAS I191A mutant (Homo sapiens, UniProt P04201, I191A)

>  <EC50 / µM>
2.4

$$$$

###

Subject of test: MAS (Homo sapiens)
Construct: expressed in transfected cells
Sequence (P04201 whole entry): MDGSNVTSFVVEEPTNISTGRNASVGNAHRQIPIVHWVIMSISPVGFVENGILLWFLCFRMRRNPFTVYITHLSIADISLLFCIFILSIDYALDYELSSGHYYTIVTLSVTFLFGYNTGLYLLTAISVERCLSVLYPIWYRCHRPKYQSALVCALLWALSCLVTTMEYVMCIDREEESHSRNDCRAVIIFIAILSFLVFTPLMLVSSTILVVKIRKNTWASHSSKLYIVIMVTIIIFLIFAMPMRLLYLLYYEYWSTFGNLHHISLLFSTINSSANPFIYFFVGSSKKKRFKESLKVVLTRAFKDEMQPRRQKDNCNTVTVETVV
Experimental protocol: HTRF IP1 assay, induced myc-tagged WT MAS HEK293 stable cell line
Assay type: cell-based
Conditions used: WT MAS, induced cells
pEC50: −log10 of the molar value.

>  <Compound>
COc1cc([N+](=O)[O-])ccc1S(=O)(=O)N1CC(CN2CCN(c3ccccn3)CC2)C(c2cccc(F)c2)C1 (stereo not shown) [AR-agonist]

>  <Subject of test>
MAS (Homo sapiens)

>  <pEC50>
5.89

$$$$
